All figures here come from PubChem BioAssay.

Reported RAM network inhibition by item:
Experiment: RAM signaling pathway blockade in yeast – S. cerevisiae, Pdr1DBD-CYC8 efflux-inhibited sensitized strain, primary screen (AID 1298);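 further: 0% = DMSO untreated cells without growth and 100% = 10 µM 1-NA-PP1 full growth; higher means more yeast growth rescued from 5-FOA killing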
Details: S. cerevisiae cbk1-as DSE1-URA3 strain, 5-FOA growth OD615, 2 d; at 50 µM; stronger effect = higher value
Reply numerically in %, unit not repeated.

Worked cases, RAM network inhibition given:
1) O=C1N=C(c2ccccc2)C(c2ccccc2)N1 (centres undefined)	1.06
2) CCOC(=O)N1CCN(C(=O)CN(C2CCCCC2)S(=O)(=O)c2ccc(C)cc2)CC1	-1.07
3) O=C(CSc1nnc(Cn2c(=O)sc3ccccc32)n1CCc1ccccc1)N1CCCC1	7.13

Identify RAM network inhibition associated with the compound O=C(Nc1ccc(Cl)cc1)C1CC2CCCC(C1)C2=O (centres undefined)
4.61

Supply reported RAM network inhibition belonging to this compound: Cc1cccc(-n2c(Cc3cc(=O)[nH]c(=O)[nH]3)nnc2SC(C)C)c1
3.87

Using the record for CC(=O)Nc1cc(-c2nn3c(C)nnc3s2)ccc1C , state its measured RAM network inhibition.
3.72

Please list RAM network inhibition recorded for the compound O=C(c1cc(-c2ccc(O)cc2)on1)N1CCc2ccccc2C1
-2.87

Provide one value: measured RAM network inhibition of O=C(Cc1ccc2c(c1)OCCO2)c1c(O)cc(O)cc1O
6.58

Please report RAM network inhibition for the following compound: Cc1cccc(-n2c(=O)[nH]c3c(C(N)=O)nc(-c4ccccc4Cl)nc32)c1
3.41

Tell us which RAM network inhibition value is on record for O=C(Nc1ccccc1)C1CC=CCC1C(=O)OCC1CCCO1 (centres undefined)
0.98

###

Test: 384-well plate pilot, post-Golgi transport modulator project, inhibition of yeast transport mutant growth (AID 636)
Conditions: absorbance 615 nm, about 18 h, stronger effect = higher value
Experimental Endpoint: inhibition (%)
Number in %, nothing else.

Consider the reported inhibition for these compounds:
1) CCSc1nnc(NC(=O)C2CCCN(S(=O)(=O)c3cnc[nH]3)C2)s1 (stereo not drawn)	-2.27
2) NC(=O)COC(=O)c1ccc(S(=O)(=O)N2CCCCCC2)cc1	-2.82
3) CC(C(=O)OCn1nnc2ccccc2c1=O)N1C(=O)c2ccccc2C1=O (stereo not drawn)	-1.45

Provide one value: measured inhibition of COC(=O)CN(c1nc(C)c(Cl)c(OC)n1)S(=O)(=O)c1ccc(C)cc1
-3.64

In one line, give reported inhibition of the entry Cc1c(C(=O)NCc2cccnc2)sc2ncn(CC(=O)N3CCCCC3C)c(=O)c12 (stereo not drawn) .
-0.79

Input C1CCC2=NCCCN2CC1 , output reported inhibition.
-7.33

###

Experiment: growth suppression of beta-catenin knockout HCT116, pilot screen, human colon tumor cells (AID 823);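 further: 0% = wells killed by 20 µM Hyamine and 100% = untreated DMSO cell wells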
Conditions: CellTiter-Glo, 60 h, at 10 µM, stronger effect = lower value
Results filed as inconclusive are left out. The source made the active and inactive calls.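 The calls were made as follows: active = cell viability at or below a set limit in both duplicate runs, the limit being the all-compound median minus 4 SD (cut at about 23% in these data, passing the limit was not always enough); inconclusive = no clear call, values can overlap the other calls; inactive = the rest.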
Experimental Endpoint: viability

Worked examples, 5 molecules total:
1. CC(=O)c1ccc(N2CCN(C(=O)c3ccc(NC(=O)C4CCCO4)cc3)CC2)cc1 (stereo unspecified)	91.2% (inactive)
2. CCOc1ccc(Oc2nc(NCC(C)C)nc(OC)n2)nn1	94.8% (inactive)
3. COc1ccc(CCNC(=O)CSc2nnnn2-c2ccccc2)cc1	94.7% (inactive)
4. CCC(=O)Nc1cc(C)c(NC(=O)c2ccco2)cn1	98.5% (inactive)
5. O=C(CCS(=O)(=O)c1cccs1)NC1CCCCCC1	94.6% (inactive)

--- query ---
Item COc1ccc(C2=NOC(C(=O)Nc3c(C)n(C)n(-c4ccccc4)c3=O)C2)cc1OC (stereo unspecified) : provide viability
102% (inactive)
